test: Terminal half life in rat at 0.3 mg/kg, iv and 0.6 mg/kg, po; assay type: ADME, organism-based; conditions: in vivo, read-out: beta t1/2 (converted)
metric: half-life (h)

INSERT INTO assay_data (substance_smiles, measurement_unit, numeric_result) VALUES
  ('NC(=O)c1c(Nc2ccc(I)cc2F)cc(F)cc1OCC[C@@H](O)Cn1ccnc1', 'h', 8.4);

* * *

test: Terminal half life in rat at 0.5 mg/kg, iv and 5 mg/kg, po; type: ADME, organism-based; settings: in vivo, read-out: beta t1/2 (converted)
metric: half-life (h)

INSERT INTO measurements (compound, numeric_result) VALUES
  ('Cn1cnc2c(F)c(Nc3ccc(Br)cc3Cl)c(C(=O)NOCCO)cc21 [SELUMETINIB]', 3.8);

* * *

test: Oral bioavailability in rat at 0.6 mg/kg; assay type: ADME, organism-based; settings: in vivo
metric: bioavailability

INSERT INTO results (substance_smiles, metric, result) VALUES
  ('NC(=O)c1c(Nc2ccc(I)cc2F)cc(F)cc1OCC[C@@H](O)Cn1ccnc1', 'bioavailability', '20%');

* * *

assay: Blood clearance in rat at 1 mg/kg, iv; format: ADME, organism-based; design: dose 1 mg/kg, route intravenous; conditions: whole blood
metric: clearance

INSERT INTO results (substance_smiles, result) VALUES
  ('CN(C)S(=O)(=O)Nc1cccc(Oc2cc(F)cc(Nc3ccc(I)cc3F)c2C(N)=O)c1', '35 mL/min/kg');

* * *

test: Blood clearance in rat at 0.5 mg/kg, iv and 5 mg/kg, po; type: ADME, organism-based; details: whole blood
metric: clearance (mL/min/kg)

INSERT INTO results (substance_smiles, metric, numeric_result) VALUES
  ('Cn1cnc2c(F)c(Nc3ccc(Br)cc3Cl)c(C(=O)NOCCO)cc21', 'clearance', 1);

* * *

Overview of reported half-life across a group of molecules:
experiment: Terminal half life in rat at 0.5 mg/kg, iv and 1 mg/kg, po; format: ADME, organism-based; conditions: in vivo, read-out: beta t1/2 (converted)
metric: half-life (h)

INSERT INTO assay_data (molecule, measurement_unit, numeric_result) VALUES
  ('NC(=O)c1c(Nc2ccc(I)cc2F)cc(F)cc1OCC[C@@H](O)CO', 'h', 2.4),
  ('O=C(NOC[C@H](O)CO)c1ccc(F)c(F)c1Nc1ccc(I)cc1F [MIRDAMETINIB]', 'h', 5.4);

* * *

assay: Terminal half life in rat at 1 mg/kg, iv and 1 mg/kg, po; format: ADME, organism-based; conditions: in vivo, read-out: beta t1/2 (converted)
metric: half-life (h)

INSERT INTO assay_data (substance_smiles, numeric_result) VALUES
  ('NC(=O)c1c(Nc2ccc(I)cc2F)cc(F)cc1Oc1cccc(NS(N)(=O)=O)c1', 32);

* * *

system: HCT-116; test: Antiproliferative activity against human HCT116 cells expressing KRAS G13D mutant; format: functional, cell-based
As shown below, each of these compounds has a reported IC50 value.
metric: IC50 (µM)

INSERT INTO results (compound, measurement_unit, numeric_result) VALUES
  ('CC(C)S(=O)(=O)Nc1cccc(Oc2cc(F)cc(Nc3ccc(I)cc3F)c2C(N)=O)c1', 'µM', 0.459),
  ('CC(C)(O)C(O)CCOc1cc(F)cc(Nc2ccc(I)cc2F)c1C(N)=O (stereo not given)', 'µM', 2.45),
  ('NC(=O)c1c(Nc2ccc(I)cc2F)cc(F)cc1OC[C@@H]1CCCN1', 'µM', 3.03),
  ('CCS(=O)(=O)Nc1cccc(Oc2cc(F)cc(Nc3ccc(I)cc3F)c2C(N)=O)c1', 'µM', 0.287),
  ('NC(=O)c1c(Nc2ccc(I)cc2F)cc(F)cc1Oc1ccc2oc(=O)[nH]c2c1', 'µM', 4.51),
  ('CC(C)C(=O)Nc1cccc(Oc2cc(F)cc(Nc3ccc(I)cc3F)c2C(N)=O)c1', 'µM', 8.81),
  ('NC(=O)c1c(Nc2ccc(I)cc2F)cc(F)cc1Oc1cccc(NS(=O)(=O)N2CCCC2)c1', 'µM', 0.412),
  ('NC(=O)c1c(Nc2ccc(I)cc2F)cc(F)cc1OC[C@@H]1CCCN1S(N)(=O)=O', 'µM', 3.04),
  ('NC(=O)c1c(Nc2ccc(I)cc2F)cc(F)cc1OCC[C@@H](O)CO', 'µM', 3.4),
  ('CS(=O)(=O)Nc1cccc(Oc2cc(F)cc(Nc3ccc(I)cc3F)c2C(N)=O)c1', 'µM', 3.8);

* * *

system: HCT-116; experiment: Antiproliferative activity against human HCT116 cells expressing KRAS G13D mutant; assay type: functional, cell-based
pIC50: −log10 of the molar value.
Could you label it Criterion met if measured pIC50 is 6 or higher, and Criterion not met otherwise?

INSERT INTO results (substance_smiles, assay_target, group_label) VALUES
  ('CNS(=O)(=O)Nc1cccc(Oc2cc(F)cc(Nc3ccc(I)cc3F)c2C(N)=O)c1', 'HCT-116', 'Criterion met'),
  ('NC(=O)c1c(Nc2ccc(I)cc2F)cc(F)cc1Oc1cccc(CS(N)(=O)=O)c1', 'HCT-116', 'Criterion not met'),
  ('NC(=O)c1c(Nc2ccc(I)cc2F)cc(F)cc1OCC[C@@H](O)Cn1cccn1', 'HCT-116', 'Criterion not met'),
  ('NC(=O)c1c(Nc2ccc(I)cc2F)cc(F)cc1Oc1cccc(NS(N)(=O)=O)c1', 'HCT-116', 'Criterion met'),
  ('Cn1cnc2c(F)c(Nc3ccc(Br)cc3Cl)c(C(=O)NOCCO)cc21', 'HCT-116', 'Criterion not met'),
  ('CC(=O)Nc1cccc(Oc2cc(F)cc(Nc3ccc(I)cc3F)c2C(N)=O)c1', 'HCT-116', 'Criterion not met'),
  ('NC(=O)c1c(Nc2ccc(I)cc2F)cc(F)cc1Oc1cccnc1', 'HCT-116', 'Criterion not met'),
  ('CN(C)S(=O)(=O)Nc1cccc(Oc2cc(F)cc(Nc3ccc(I)cc3F)c2C(N)=O)c1', 'HCT-116', 'Criterion met');

* * *

Reported pIC50 values for a set of compounds
target: Dual specificity mitogen-activated protein kinase kinase 1 (Homo sapiens); assay: Inhibition of MEK1 (unknown origin) after 2 hrs by fluorescence assay
Sequence (Q02750 whole entry): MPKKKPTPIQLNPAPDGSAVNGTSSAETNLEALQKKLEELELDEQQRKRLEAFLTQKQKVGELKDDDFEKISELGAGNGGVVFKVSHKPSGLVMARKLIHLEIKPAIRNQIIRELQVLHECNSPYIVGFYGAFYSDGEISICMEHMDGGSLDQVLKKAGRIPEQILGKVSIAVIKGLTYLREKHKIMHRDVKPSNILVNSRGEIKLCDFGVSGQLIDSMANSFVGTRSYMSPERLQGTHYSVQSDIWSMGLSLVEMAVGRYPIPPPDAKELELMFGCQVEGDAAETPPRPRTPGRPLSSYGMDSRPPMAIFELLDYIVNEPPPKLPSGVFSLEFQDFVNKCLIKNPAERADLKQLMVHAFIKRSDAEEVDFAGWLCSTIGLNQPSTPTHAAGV
pIC50: −log10 of the molar value.
metric: pIC50

INSERT INTO assay_data (compound, metric, numeric_result) VALUES
  ('NC(=O)c1c(Nc2ccc(I)cc2F)cc(F)cc1Oc1cccc(CS(N)(=O)=O)c1', 'pIC50', 7.49),
  ('NC(=O)c1c(Nc2ccc(I)cc2F)cc(F)cc1OCC[C@@H](O)Cn1ccnc1', 'pIC50', 7.80),
  ('CC(C)(O)C(O)CCOc1cc(F)cc(Nc2ccc(I)cc2F)c1C(N)=O (stereo unspecified)', 'pIC50', 7.37),
  ('NC(=O)c1c(Nc2ccc(I)cc2F)cc(F)cc1OC[C@H](O)CCO', 'pIC50', 7.20),
  ('CC(C)C(=O)Nc1cccc(Oc2cc(F)cc(Nc3ccc(I)cc3F)c2C(N)=O)c1', 'pIC50', 7.32),
  ('NC(=O)c1c(Nc2ccc(I)cc2F)cc(F)cc1OCC[C@@H](O)Cn1cccn1', 'pIC50', 7.89),
  ('NC(=O)c1c(Nc2ccc(I)cc2F)cc(F)cc1Oc1cccnc1', 'pIC50', 7.12),
  ('NC(=O)c1c(Nc2ccc(I)cc2F)cc(F)cc1Oc1ccc2oc(=O)[nH]c2c1', 'pIC50', 7.44),
  ('CC(C)S(=O)(=O)Nc1cccc(Oc2cc(F)cc(Nc3ccc(I)cc3F)c2C(N)=O)c1', 'pIC50', 7.74),
  ('NC(=O)c1c(Nc2ccc(I)cc2F)cc(F)cc1Oc1ccc2cn[nH]c2c1', 'pIC50', 7.27),
  ('NC(=O)c1c(Nc2ccc(I)cc2F)cc(F)cc1OC[C@@H]1CCCN1S(N)(=O)=O', 'pIC50', 7.14),
  ('CCS(=O)(=O)Nc1cccc(Oc2cc(F)cc(Nc3ccc(I)cc3F)c2C(N)=O)c1', 'pIC50', 7.82),
  ('COc1cc(F)cc(Nc2ccc(I)cc2F)c1C(N)=O', 'pIC50', 7.13),
  ('NC(=O)c1c(Nc2ccc(I)cc2F)cc(F)cc1Oc1cccc(NS(N)(=O)=O)c1', 'pIC50', 7.85),
  ('NC(=O)c1c(Nc2ccc(I)cc2F)cc(F)cc1OC[C@@H]1CCCN1', 'pIC50', 7.59),
  ('NC(=O)c1c(Nc2ccc(I)cc2F)cc(F)cc1Oc1ccccc1', 'pIC50', 7.00),
  ('CN(C)S(=O)(=O)N1CCC[C@H]1COc1cc(F)cc(Nc2ccc(I)cc2F)c1C(N)=O', 'pIC50', 6.00),
  ('NC(=O)c1c(Nc2ccc(I)cc2F)cc(F)cc1Oc1cccc(NS(=O)(=O)N2CCCC2)c1', 'pIC50', 7.68),
  ('CC(=O)Nc1ccc(Oc2cc(F)cc(Nc3ccc(I)cc3F)c2C(N)=O)cc1', 'pIC50', 6.27),
  ('CS(=O)(=O)Nc1cccc(Oc2cc(F)cc(Nc3ccc(I)cc3F)c2C(N)=O)c1', 'pIC50', 7.68),
  ('CN(C)S(=O)(=O)Nc1cccc(Oc2cc(F)cc(Nc3ccc(I)cc3F)c2C(N)=O)c1', 'pIC50', 7.68);
